- Tested on: Hsp90 complexes in K562 cell extract
- EXPERIMENT: Nano-LC-MS/MS of PU-beads pull-downs
- Assay type: binding
- EXPERIMENTAL PARAMETERS: protein identified in PU-beads pull-down of K562 cell extract, Prep 2; QSTAR-Elite QTof MS

MOLECULE: MOBKL3 (protein, UniProt Q96BX8 1-217, looked up) MOB kinase activator 3A: MSNPFLKQVFNKDKTFRPKRKFEPGTQRFELHKKAQASLNAGLDLRLAVQLPPGEDLNDWVAVHVVDFFNRVNLIYGTISDGCTEQSCPVMSGGPKYEYRWQDEHKFRKPTALSAPRYMDLLMDWIEAQINNEDLFPTNVGTPFPKNFLQTVRKILSRLFRVFVHVYIHHFDRIAQMGSEAHVNTCYKHFYYFVKEFGLIDTKELEPLKEMTARMCH
Number of Assigned Spectra, K562 Prep 2: 0
--
MOLECULE: APRT (protein, UniProt P07741 2-180, looked up) Adenine …: ADSELQLVEQRIRSFPDFPTPGVVFRDISPVLKDPASFRAAIGLLARHLKATHGGRIDYIAGLDSRGFLFGPSLAQELGLGCVLIRKRGKLPGPTLWASYSLEYGKAELEIQKDALEPGQRVVVVDDLLATGGTMNAACELLGRLQAEVLECVSLVELTSLKGREKLAPVPFFSLLQYE
Number of Assigned Spectra, K562 Prep 2: 0
--
MOLECULE: CT45A5 (protein, UniProt P0DMU8 1-189, looked up) Cancer/testis antigen family …: MTDKTEKVAVDPETVFKRPRECDSPSYQKRQRMALLARKQGAGDSLIAGSAMSKEKKLMTGHAIPPSQLDSQIDDFTGFSKDGMMQKPGSNAPVGGNVTSSFSGDDLECRETASSPKSQREINADIKRKLVKELRCVGQKYEKIFEMLEGVQGPTAVRKRFFESIIKEAARCMRRDFVKHLKKKLKRMI
Number of Assigned Spectra, K562 Prep 2: 0
--
MOLECULE: O60613 (protein, UniProt O60613 1-165, looked up, full-length) MVAMAAGPSGCLVPAFGLRLLLATVLQAVSAFGAEFSSEACRELGFSSNLLCSSCDLLGQFNLLQLDPDCRGCCQEEAQFETKKLYAGAILEVCGUKLGRFPQVQAFVRSDKPKLFRGLQIKYVRGSDPVLKLLDDNGNIAEELSILKWNTDSVEEFLSEKLERI
Number of Assigned Spectra, K562 Prep 2: 0
--
MOLECULE: TPP1 (protein, UniProt O14773 196-563, looked up) Tripeptidyl-peptidase 1: LHLGVTPSVIRKRYNLTSQDVGSGTSNNSQACAQFLEQYFHDSDLAQFMRLFGGNFAHQASVARVVGQQGRGRAGIEASLDVQYLMSAGANISTWVYSSPGRHEGQEPFLQWLMLLSNESALPHVHTVSYGDDEDSLSSAYIQRVNTELMKAAARGLTLLFASGDSGAGCWSVSGRHQFRPTFPASSPYVTTVGGTSFQEPFLITNEIVDYISGGGFSNVFPRPSYQEEAVTKFLSSSPHLPPSSYFNASGRAYPDVAALSDGYWVVSNRVPIPWVSGTSASTPVFGGILSLINEHRILSGRPPLGFLNPRLYQQHGAGLFDVTRGCHESCLDEEVEGQGFCSGPGWDPVTGWGTPNFPALLKTLLNP
Number of Assigned Spectra, K562 Prep 2: 1
